# System: SW620 tumor organoids
# METHOD: Tumor organoid cytotoxicity / 3D cell viability (CellTox Green)
# Format: cell-based
# ASSAY_CONTEXT: Homo sapiens, SW-620, Table 2, 72 hours
pIC50: −log10 of the molar value.
PROPERTY_MEASURED: pIC50

Worked cases, answers included:
MOLECULE	pIC50
CC(=O)Nc1ccc2c(-c3cc4ccccc4o3)ccnc2c1O [Analog 53]	< 4.52
CC(=O)Nc1ccc2c(-c3ccoc3)ccnc2c1O [Analog 56]	< 4.52
CC(=O)Nc1ccc2c(-c3cc(F)ccc3O)ccnc2c1O [Analog 7]	< 4.52

Switching to the query record.
Prompt: Identify pIC50 associated with the molecule O=C(CCN1CCOCC1)Nc1ccc2c(-c3cc(F)ccc3O)ccnc2c1O [Analog 42]
Completion: < 4.52

---

The entries below are paired with their reported pEC50.
# Tested on: E-cadherin promoter activity (EcadPro-RFP) in SW620 cells
# METHOD: EcadPro-RFP (mCherry) EMT reporter assay
# Type: cell-based
# ASSAY_CONTEXT: Table 2; SW620 tumor organoids, 72 hours; read-out: % E-cadherin upregulation EC50
Friendly reminder that pEC50 comes from taking -log10 of the concentration in mol/L.

TEST_SMILES	TARGET_UNDER_TEST	QUANTITATIVE_READOUT
CC(=O)Nc1ccc(-c2ccnc3c(O)c(NC(C)=O)ccc23)cc1	E-cadherin promoter activity (EcadPro-RFP) in SW620 cells	5.26

Prompt: Specify measured pEC50 for CC(C)(C)C(=O)Nc1ccc2c(-c3ccccc3)ccnc2c1O .
Completion: 5.51

---

Reported inhibition at 30 µM is given for each of the following molecules.
# TARGET_UNDER_TEST: Human TOP2A (Homo sapiens)
# Construct: purchased TopoGEN (Buena Vista, CO)
# METHOD: TOP2A DNA decatenation assay (kDNA, agarose gel)
# Assay type: biochemical
# ASSAY_CONTEXT: Table 3; 30 μM; read-out: % TOP2A Decatenation inhibition (30 μM)
Entry rule: numbers only, all in %.

MOLECULE	inhibition at 30 µM / %
CC(=O)Nc1ccc2c(NC3CCCC3)ccnc2c1O [AA-34-131]	92
O=C(CCN1CCOCC1)Nc1ccc2c(NC3CCCCC3)ccnc2c1O [AA-34-180]	0
O=C(CN1CCOCC1)Nc1ccc2c(NC3CCCCC3)ccnc2c1O [AA-34-171]	62
CC(=O)Nc1ccc2c(NC3CCCCC3)ccnc2c1O [AA-29-216]	100
CC(=O)Nc1ccc2c(Nc3ccccc3)ccnc2c1O [AA-29-148]	100

Prompt: Lab note: record inhibition at 30 µM of CC(=O)Nc1ccc2c(Nc3ccc4[nH]ccc4c3)ccnc2c1O [AA-29-136] tested on Human TOP2A (Homo sapiens).
Completion: 90

Prompt: # return inhibition at 30 µM of CC(=O)Nc1ccc2c(NC3CCCCCC3)ccnc2c1O [AA-34-130] (system: Human TOP2A (Homo sapiens))
Completion: 100

Prompt: // fetch inhibition at 30 µM; item: CC(=O)Nc1ccc2c(Nc3cccc(F)c3)ccnc2c1O [AA-29-146] ; system: Human TOP2A (Homo sapiens)
Completion: 100

Prompt: GET inhibition at 30 µM | system: Human TOP2A (Homo sapiens) | item: CC(=O)Nc1ccc2c(NC3CCC3)ccnc2c1O [AA-34-132]
Completion: 94

---

Entries and their measured % Inhibition TOP2A (30 μM) follow.
# TARGET_UNDER_TEST: Human TOP2A (Homo sapiens)
# Construct: purchased TopoGEN (Buena Vista, CO)
# METHOD: TOP2A DNA decatenation assay (kDNA, agarose gel)
# Assay type: biochemical
# ASSAY_CONTEXT: Table 1; decatenation, 30 μM fixed concentration
Numbers only here, please. The scale is %.

Take a look at these entries with their results.
TEST_SMILES	QUANTITATIVE_READOUT
CC(=O)Nc1cccc(-c2ccnc3c(O)c(NC(C)=O)ccc23)c1	3.0
CC(=O)Nc1ccc2c(-c3cccc(O)c3)ccnc2c1O	0.0
CC(=O)Nc1ccc2c(-c3cc4ccccc4s3)ccnc2c1O	0.0
CC(=O)Nc1ccc2c(-c3ccc(F)cc3)ccnc2c1O	1.0
CC(=O)Nc1ccccc1-c1ccnc2c(O)c(NC(=O)CCN3CCOCC3)ccc12	1.0

Prompt: Lab note: Human TOP2A (Homo sapiens) assay, enter % Inhibition TOP2A (30 μM) for CC(=O)Nc1ccc(-c2ccnc3c(O)c(NC(C)=O)ccc23)cc1 here
Completion: 97.0

Prompt: Give measured % Inhibition TOP2A (30 μM) for COc1ccc(F)cc1-c1ccnc2c(OC)c(NC(C)=O)ccc12 (Human TOP2A (Homo sapiens)).
Completion: 0.0

Prompt: Please look at CC(=O)Nc1ccccc1-c1ccnc2c(O)c(NC(C)=O)ccc12 and tell me its recorded % Inhibition TOP2A (30 μM) on Human TOP2A (Homo sapiens).
Completion: 1.0

Prompt: Supply % Inhibition TOP2A (30 μM) measured with Human TOP2A (Homo sapiens) for CC(=O)Nc1ccc2c(-c3cccc(C(F)(F)F)c3)ccnc2c1O .
Completion: 97.0

---

Each entry below carries its reported EC50.
# Test system: vimentin promoter activity (VimPro-GFP) in SW620 cells
# METHOD: VimPro-GFP EMT reporter assay
# ASSAY_CONTEXT: Homo sapiens, SW-620, read-out: Vimentin Down-regulation EC50 (μM)
Supply the numeric figure in µM, leaving out any unit text.

Some molecules with known EC50 results, for comparison:
TEST_SMILES	EC50 / µM
CC(=O)Nc1ccc2c(Nc3ccc4[nH]ccc4c3)ccnc2c1O	4.1
CC(=O)Nc1ccc2c(Nc3cccc(F)c3)ccnc2c1O	7.4
CC(=O)Nc1ccc2c(Nc3ccc(O)cc3F)ccnc2c1O	45.9

Prompt: Report EC50, nothing else, for this molecule: O=C(CCN1CCOCC1)Nc1ccc2c(NC3CCCCC3)ccnc2c1O
Completion: 13

Prompt: Tell us which EC50 value is on record for CC(=O)Nc1ccc2c(NC3CCCCCC3)ccnc2c1O
Completion: 59

---

# TARGET_UNDER_TEST: Human TOP2A (Homo sapiens)
# Construct: purchased TopoGEN (Buena Vista, CO)
# METHOD: TOP2A DNA decatenation assay (kDNA, agarose gel)
# Type: biochemical
# ASSAY_CONTEXT: Table 3; read-out: TOP2A Inhibition IC50
PROPERTY_MEASURED: pIC50
Just so you know, pIC50 here is -log10 of the concentration in molar units; reply with that number alone.

TEST_SMILES	TARGET_UNDER_TEST	pIC50
CC(=O)Nc1ccc2c(NC3CCCCCC3)ccnc2c1O	Human TOP2A (Homo sapiens)	5.82
CC(=O)Nc1ccc2c(NC3CCCCC3)ccnc2c1O	Human TOP2A (Homo sapiens)	6.54

Prompt: Give a short answer stating reported pIC50 for CC(=O)Nc1ccc2c(NC3CCCC3)ccnc2c1O .
Completion: 5.67

Prompt: Look up pIC50 of CC(=O)Nc1ccc2c(NC3CCC3)ccnc2c1O and report it.
Completion: 5.18

---

# TARGET_UNDER_TEST: Human TOP2A (Homo sapiens, UniProt P11388)
# Construct: purchased TopoGEN (Buena Vista, CO)
# Sequence (P11388 whole entry): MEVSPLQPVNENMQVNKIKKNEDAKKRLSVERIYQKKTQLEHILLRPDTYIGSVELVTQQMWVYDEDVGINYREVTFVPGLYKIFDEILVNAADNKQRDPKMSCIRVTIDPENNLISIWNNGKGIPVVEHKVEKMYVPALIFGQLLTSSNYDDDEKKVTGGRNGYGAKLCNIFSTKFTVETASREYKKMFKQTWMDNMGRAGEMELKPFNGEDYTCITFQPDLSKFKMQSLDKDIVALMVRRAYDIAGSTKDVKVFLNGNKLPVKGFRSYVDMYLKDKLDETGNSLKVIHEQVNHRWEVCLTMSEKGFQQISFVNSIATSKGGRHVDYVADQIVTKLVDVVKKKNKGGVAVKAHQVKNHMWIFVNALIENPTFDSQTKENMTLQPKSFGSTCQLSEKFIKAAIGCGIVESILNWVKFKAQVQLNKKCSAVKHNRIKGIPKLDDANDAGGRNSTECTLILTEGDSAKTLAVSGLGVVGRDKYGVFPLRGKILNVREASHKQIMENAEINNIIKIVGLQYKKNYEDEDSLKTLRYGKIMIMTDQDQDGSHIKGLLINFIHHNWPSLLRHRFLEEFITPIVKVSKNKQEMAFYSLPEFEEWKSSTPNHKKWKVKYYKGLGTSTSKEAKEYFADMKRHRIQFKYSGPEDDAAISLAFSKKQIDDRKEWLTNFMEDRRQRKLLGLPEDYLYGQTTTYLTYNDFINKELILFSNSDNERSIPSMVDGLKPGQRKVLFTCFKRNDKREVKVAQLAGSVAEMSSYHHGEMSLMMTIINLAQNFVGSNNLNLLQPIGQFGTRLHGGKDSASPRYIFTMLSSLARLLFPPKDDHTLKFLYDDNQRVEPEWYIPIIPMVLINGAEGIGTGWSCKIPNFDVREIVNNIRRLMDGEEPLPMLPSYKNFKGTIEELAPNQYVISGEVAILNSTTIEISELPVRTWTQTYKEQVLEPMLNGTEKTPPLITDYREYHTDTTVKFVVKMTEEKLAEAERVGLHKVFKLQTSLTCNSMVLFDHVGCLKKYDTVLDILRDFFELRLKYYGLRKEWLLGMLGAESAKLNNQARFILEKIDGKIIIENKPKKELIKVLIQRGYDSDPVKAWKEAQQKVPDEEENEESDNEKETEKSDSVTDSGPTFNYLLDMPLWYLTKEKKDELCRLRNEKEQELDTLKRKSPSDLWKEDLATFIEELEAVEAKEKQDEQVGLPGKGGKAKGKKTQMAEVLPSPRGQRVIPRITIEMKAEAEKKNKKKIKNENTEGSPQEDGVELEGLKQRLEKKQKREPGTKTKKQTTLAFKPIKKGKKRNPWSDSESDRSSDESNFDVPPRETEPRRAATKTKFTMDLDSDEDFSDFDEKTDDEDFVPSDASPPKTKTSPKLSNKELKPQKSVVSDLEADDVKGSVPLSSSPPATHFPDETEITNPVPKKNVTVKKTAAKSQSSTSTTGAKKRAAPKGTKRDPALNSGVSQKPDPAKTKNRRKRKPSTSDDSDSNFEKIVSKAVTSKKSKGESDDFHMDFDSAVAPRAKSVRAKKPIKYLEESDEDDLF
# METHOD: TOP2A DNA decatenation assay (kDNA, agarose gel)
# Assay type: biochemical
# ASSAY_CONTEXT: decatenation dose response; read-out: IC50 TOP2A inhibition
PROPERTY_MEASURED: pIC50
To interpret pIC50, take it as minus log10 of a concentration measured in moles per litre.

TEST_SMILES	pIC50
O=C(CCN1CCOCC1)Nc1ccc2c(-c3cc4ccccc4o3)ccnc2c1O	5.40

// next entry
Prompt: Report pIC50, nothing else, for this molecule: O=C(CCN1CCOCC1)Nc1ccc2c(-c3cc(F)ccc3O)ccnc2c1O
Completion: 6.22

---

# TARGET_UNDER_TEST: Human TOP2A (Homo sapiens, UniProt P11388)
# Construct: purchased TopoGEN (Buena Vista, CO)
# METHOD: TOP2A DNA decatenation assay (kDNA, agarose gel)
# Assay type: biochemical
# ASSAY_CONTEXT: Table 1; decatenation dose response; read-out: % Inhibition TOP2A (IC50 Values)
Some compounds, each annotated with its measured IC50.
Respond numerically; units are µM and should not be typed.

COMPOUND	IC50, µM
O=C(CCN1CCOCC1)Nc1ccc2c(-c3cc4ccccc4o3)ccnc2c1O [Analog 61]	4.1
CC(=O)Nc1ccc2c(-c3cccs3)ccnc2c1O [Analog 57]	2.3
CC(=O)Nc1ccc2c(-c3ccc(C(F)(F)F)cc3)ccnc2c1O [Analog 32]	0.7

Prompt: Return value of IC50 for input CC(=O)Nc1ccc(-c2ccnc3c(O)c(NC(C)=O)ccc23)cc1 [Analog 35] , no commentary.
Completion: 1.9

Prompt: Give IC50 for CC(=O)Nc1ccc2c(-c3ccsc3)ccnc2c1O [Analog 58]
Completion: 5

Prompt: Give the value of IC50 reported for the following: O=C(CN1CCOCC1)Nc1ccc2c(-c3cc4ccccc4o3)ccnc2c1O [Analog 60]
Completion: 5

Prompt: Identify measured IC50 corresponding to CC(=O)Nc1ccc2c(-c3ccoc3)ccnc2c1O [Analog 56]
Completion: 6.4

Prompt: Give reported IC50 value for CC(C)(C)C(=O)Nc1ccc2c(-c3ccccc3)ccnc2c1O [Analog 39]
Completion: 1.3
